Source listed as patent EP2931723B1.

Target: CTX-M-9 (Escherichia coli, UniProt Q9L5C8)
Sequence (Q9L5C8 29-291): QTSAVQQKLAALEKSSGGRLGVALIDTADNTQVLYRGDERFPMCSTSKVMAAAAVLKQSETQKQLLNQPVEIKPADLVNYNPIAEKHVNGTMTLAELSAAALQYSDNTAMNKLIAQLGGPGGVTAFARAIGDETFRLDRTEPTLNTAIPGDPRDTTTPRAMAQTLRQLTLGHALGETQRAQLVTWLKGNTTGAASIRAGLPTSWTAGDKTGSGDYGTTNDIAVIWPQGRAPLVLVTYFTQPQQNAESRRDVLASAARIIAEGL
Test: β-lactamase inhibitory activity, spectrophotometric nitrocefin assay
Assay type: biochemical
Details: nitrocefin as substrate
Method: The inhibitory activities of compounds herein disclosed against various enzymes were measured by spectrophotometric assay using […] and using nitrocefin as a substrate [J. Antimicrob. Chemother., 28, pp 775-776 (1991)] . The concentration of inhibitor (IC50) which inhibits by 50% the reaction of hydrolysis of nitrocefin by the enzyme is determined. […] Table 13 Test for β-lactamase Inhibitory Activity
endpoint_label: IC50
Show the value, then the unit it is measured in.

Q: Requested read-out: IC50. Entry: CC(=O)NNC(=O)[C@@H]1CC[C@@H]2CN1C(=O)N2OS(=O)(=O)O
A: 0.327 µM

---

tested on: K. pneumo JMI 2693; experiment: MIC, antibacterial and synergistic activity; format: cell-based; settings: K. pneumo JMI 2693 (NDM-1 (Cpase)); Meropenem + inhibitor at 4 µg/mL
endpoint_label: MIC Meropenem + inhibitor (µg/mL)
Write the number in µg/mL without appending the unit.

// below: answered compounds
compound: O=C(NO[C@H]1CCNC1)[C@@H]1CC[C@@H]2CN1C(=O)N2OS(=O)(=O)O
test_system: K. pneumo JMI 2693
MIC Meropenem + inhibitor (µg/mL): 0.062
--
compound: CC(=O)NNC(=O)[C@@H]1CC[C@@H]2CN1C(=O)N2OS(=O)(=O)O
test_system: K. pneumo JMI 2693
MIC Meropenem + inhibitor (µg/mL): 0.125
--
compound: CCC(=O)NNC(=O)[C@@H]1CC[C@@H]2CN1C(=O)N2OS(=O)(=O)O
test_system: K. pneumo JMI 2693
MIC Meropenem + inhibitor (µg/mL): 0.125
--
compound: O=C(NNC(=O)[C@H]1CC[C@H]2CN1C(=O)N2OS(=O)(=O)O)C1CNC1 (stereo in doubt)
test_system: K. pneumo JMI 2693
MIC Meropenem + inhibitor (µg/mL): 0.125

Switching to the query record.
Q: Requested read-out: MIC Meropenem + inhibitor. Entry: O=C(NNC(=O)[C@H]1CC[C@H]2CN1C(=O)N2OS(=O)(=O)O)C1CC1 (stereo in doubt)
A: 0.25

---

Each item that follows carries a reported MIC Meropenem + inhibitor.
system: K. pneumo JMI 2681; assay: MIC, antibacterial and synergistic activity; assay type: cell-based; conditions: K. pneumo JMI 2681 (Oxa-48 (Cpase)); Meropenem + inhibitor at 4 µg/mL

// below: answered compounds
compound: CCC(=O)NNC(=O)[C@@H]1CC[C@@H]2CN1C(=O)N2OS(=O)(=O)O
test_system: K. pneumo JMI 2681
MIC Meropenem + inhibitor: 0.5 µg/mL
--
compound: O=C(NO[C@H]1CCCNC1)[C@@H]1CC[C@@H]2CN1C(=O)N2OS(=O)(=O)O
test_system: K. pneumo JMI 2681
MIC Meropenem + inhibitor: >2 µg/mL

Switching to the query record.
Q: Requested read-out: MIC Meropenem + inhibitor. Entry: O=C(NNC(=O)[C@H]1CC[C@H]2CN1C(=O)N2OS(=O)(=O)O)C1CNC1 (stereo in doubt)
A: >2 µg/mL

---

system: E. coli JMI 11103; test: MIC, antibacterial and synergistic activity; type: cell-based; conditions: E. coli JMI 11103 (CTX-M15 (Intermediate ESBL)); Meropenem + inhibitor at 4 µg/mL
endpoint_label: MIC Meropenem + inhibitor

// below: answered molecules
molecule: NCCONC(=O)[C@@H]1CC[C@@H]2CN1C(=O)N2OS(=O)(=O)O [Ex. 3]
reported_value: 0.062 µg/mL
//
molecule: CCC(=O)NNC(=O)[C@@H]1CC[C@@H]2CN1C(=O)N2OS(=O)(=O)O [Ex. 8]
reported_value: ≤0.0312 µg/mL

Q: Requested read-out: MIC Meropenem + inhibitor. Entry: O=C(NNC(=O)[C@H]1CC[C@H]2CN1C(=O)N2OS(=O)(=O)O)C1CNC1 (stereo in doubt) [Ex. 9]
A: ≤0.03 µg/mL

Q: Requested read-out: MIC Meropenem + inhibitor. Entry: CC(=O)NNC(=O)[C@@H]1CC[C@@H]2CN1C(=O)N2OS(=O)(=O)O [Ex. 5]
A: ≤0.031 µg/mL

---

system: K. pneumo JMI 2693; assay: MIC, antibacterial and synergistic activity; assay type: cell-based; details: K. pneumo JMI 2693 (NDM-1 (Cpase)); substance alone
endpoint_label: MIC

// below: answered compounds
compound: CC(C)(O/N=C(\C(=O)N[C@@H]1C(=O)N2C(C(=O)[O-])=C(C[n+]3ccccc3)CS[C@H]12)c1csc(N)n1)C(=O)O [Ceftazidime, ceftazidime, reference compound]
reported_value: > 512 µg/mL
//
compound: O=C(NNC(=O)[C@H]1CC[C@H]2CN1C(=O)N2OS(=O)(=O)O)C1CNC1 (stereo in doubt)
reported_value: > 16 µg/mL
//
compound: O=C(NO[C@H]1CCCNC1)[C@@H]1CC[C@@H]2CN1C(=O)N2OS(=O)(=O)O
reported_value: 4 µg/mL
//
compound: O=C(NNC(=O)[C@H]1CC[C@H]2CN1C(=O)N2OS(=O)(=O)O)C1CC1 (stereo in doubt)
reported_value: > 16 µg/mL
//
compound: C[C@H]1[C@H](NC(=O)/C(=N\OC(C)(C)C(=O)O)c2csc(N)n2)C(=O)N1S(=O)(=O)O [Aztreonam, aztreonam, reference compound]
reported_value: > 512 µg/mL

Q: # get_value(readout= MIC, system= K. pneumo JMI 2693) for O=C(NO[C@H]1CCNC1)[C@@H]1CC[C@@H]2CN1C(=O)N2OS(=O)(=O)O
A: > 16 µg/mL

Q: # get_value(readout= MIC, system= K. pneumo JMI 2693) for CCC(=O)NNC(=O)[C@@H]1CC[C@@H]2CN1C(=O)N2OS(=O)(=O)O
A: > 16 µg/mL

Q: # get_value(readout= MIC, system= K. pneumo JMI 2693) for C[C@@H](O)[C@H]1C(=O)N2C(C(=O)O)=C(S[C@@H]3CN[C@H](C(=O)N(C)C)C3)[C@H](C)[C@H]12 [Meropenem, meropenem, reference compound]
A: 8 µg/mL

Q: # get_value(readout= MIC, system= K. pneumo JMI 2693) for CC(=O)NNC(=O)[C@@H]1CC[C@@H]2CN1C(=O)N2OS(=O)(=O)O
A: > 16 µg/mL

Q: # get_value(readout= MIC, system= K. pneumo JMI 2693) for NCCONC(=O)[C@@H]1CC[C@@H]2CN1C(=O)N2OS(=O)(=O)O
A: 8 µg/mL

---

Each item that follows carries a reported MIC Aztreonam + inhibitor.
tested on: E. coli ATCC 25922; assay: MIC, antibacterial and synergistic activity; assay type: cell-based; settings: E. coli ATCC 25922 (Wt); Aztreonam + inhibitor at 4 µg/mL

// below: answered compounds
compound: CCC(=O)NNC(=O)[C@@H]1CC[C@@H]2CN1C(=O)N2OS(=O)(=O)O [Ex. 8]
endpoint_label: MIC Aztreonam + inhibitor
reported_value: ≤0.0625 µg/mL

compound: O=C(NO[C@H]1CCCNC1)[C@@H]1CC[C@@H]2CN1C(=O)N2OS(=O)(=O)O [Ex. 2]
endpoint_label: MIC Aztreonam + inhibitor
reported_value: ≤.062 µg/mL

Q: Requested read-out: MIC Aztreonam + inhibitor. Entry: O=C(NNC(=O)[C@H]1CC[C@H]2CN1C(=O)N2OS(=O)(=O)O)C1CNC1 (stereo in doubt) [Ex. 9]
A: ≤0.06 µg/mL

Q: Requested read-out: MIC Aztreonam + inhibitor. Entry: O=C(NNC(=O)[C@H]1CC[C@H]2CN1C(=O)N2OS(=O)(=O)O)C1CC1 (stereo in doubt) [Ex. 7]
A: ≤0.0625 µg/mL

Q: Requested read-out: MIC Aztreonam + inhibitor. Entry: O=C(NO[C@H]1CCNC1)[C@@H]1CC[C@@H]2CN1C(=O)N2OS(=O)(=O)O [Ex. 1]
A: ≤.062 µg/mL

Q: Requested read-out: MIC Aztreonam + inhibitor. Entry: CC(=O)NNC(=O)[C@@H]1CC[C@@H]2CN1C(=O)N2OS(=O)(=O)O [Ex. 5]
A: ≤0.062 µg/mL

Q: Requested read-out: MIC Aztreonam + inhibitor. Entry: NCCONC(=O)[C@@H]1CC[C@@H]2CN1C(=O)N2OS(=O)(=O)O [Ex. 3]
A: ≤0.062 µg/mL

---

Test system: K.pneumo JMI 4109
Assay: MIC, antibacterial and synergistic activity
Format: cell-based
Conditions: K.pneumo JMI 4109 (SHV-1, SHV-12); Aztreonam + inhibitor at 4 µg/mL
Method: In the Tables 10 - 12, compounds herein disclosed were tested in combination with various antibiotics against metallo β-lactamase producing bacteria. Table 3: Synergy of the inhibitor Ex. 1 (4 µg/mL) in combination with antibiotics
endpoint_label: MIC Aztreonam + inhibitor

molecule: NCCONC(=O)[C@@H]1CC[C@@H]2CN1C(=O)N2OS(=O)(=O)O
reported_value: ≤0.062 µg/mL

Q: # get_value(readout= MIC Aztreonam + inhibitor, system= K.pneumo JMI 4109) for CC(=O)NNC(=O)[C@@H]1CC[C@@H]2CN1C(=O)N2OS(=O)(=O)O
A: ≤0.062 µg/mL

Q: # get_value(readout= MIC Aztreonam + inhibitor, system= K.pneumo JMI 4109) for O=C(NNC(=O)[C@H]1CC[C@H]2CN1C(=O)N2OS(=O)(=O)O)C1CC1 (stereo in doubt)
A: 0.125 µg/mL
